# System Name: T1, Karyopherin beta2 (Kapβ2), full length, wild type (human, UniProt Q92973-2 1-890)
# T1 construct: mature; Expressed as a GST fusion from pGEX-Tev and purified; Also used here for the Kapβ2 added in the GST pull-downs; also called Transportin
# T1 sequence (looked up): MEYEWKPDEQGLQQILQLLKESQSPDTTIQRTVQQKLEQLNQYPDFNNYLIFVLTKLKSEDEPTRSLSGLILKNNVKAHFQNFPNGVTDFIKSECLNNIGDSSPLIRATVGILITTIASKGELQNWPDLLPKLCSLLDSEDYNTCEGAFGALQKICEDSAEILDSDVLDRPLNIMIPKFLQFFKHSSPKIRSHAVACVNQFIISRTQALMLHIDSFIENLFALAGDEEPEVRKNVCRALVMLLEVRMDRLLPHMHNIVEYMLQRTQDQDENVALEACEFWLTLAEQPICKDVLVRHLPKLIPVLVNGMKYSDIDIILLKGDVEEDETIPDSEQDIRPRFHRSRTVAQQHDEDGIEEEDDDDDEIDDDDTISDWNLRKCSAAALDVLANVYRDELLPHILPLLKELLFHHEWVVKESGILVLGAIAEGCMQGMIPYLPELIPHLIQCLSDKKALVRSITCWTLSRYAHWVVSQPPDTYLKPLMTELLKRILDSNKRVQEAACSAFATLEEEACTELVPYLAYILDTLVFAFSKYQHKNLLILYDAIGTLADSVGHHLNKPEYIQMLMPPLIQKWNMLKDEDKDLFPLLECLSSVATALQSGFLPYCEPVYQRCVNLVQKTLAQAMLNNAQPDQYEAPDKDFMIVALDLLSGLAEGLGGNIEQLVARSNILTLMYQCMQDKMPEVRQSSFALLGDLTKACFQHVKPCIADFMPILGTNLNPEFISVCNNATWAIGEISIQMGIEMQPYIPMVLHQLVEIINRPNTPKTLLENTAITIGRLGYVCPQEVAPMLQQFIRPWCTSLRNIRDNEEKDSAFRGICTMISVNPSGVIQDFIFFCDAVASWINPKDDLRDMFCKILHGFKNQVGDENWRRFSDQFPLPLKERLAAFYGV
# Assay: ITC; MBP-hnRNP M(41-70) titrated into full-length Kapβ2
No end group written: not given here.
Measured Quantity: Kd (nM)
The figure you give is taken to be in nM; do not add the unit.

What does the data say about its Kd? Entry: ERPAQNEKRKEKNIKRGGNRFEPYANPTKR (other, human, UniProt P52272 41-70, looked up, not shown: large carriers, also: MBP fusion partner, not in chain, range 41-70; also called MBP-hnRNP M-NLS; hnRNP M-NLS) [MBP-hnRNP M(41-70) wild type]
10
